B1: CPEB3 Ribozyme (parent)
chain: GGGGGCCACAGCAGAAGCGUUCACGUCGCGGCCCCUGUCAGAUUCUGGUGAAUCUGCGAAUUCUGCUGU

variants of: B1; assay: self-cleavage, relative activity (ratio to wild type); higher = more cleavage; co-transcriptional
readout_name: self-cleavage
# answer = number (no unit)

variant_key: G37C U64G
self-cleavage: 0.205

U43G U67C yielded self-cleavage of 0.915
